Target: T1, receptor-binding domain (RBD) of the wild-type SARS-CoV-2 spike protein (SARS-CoV-2, UniProt P0DTC2 333-527)
T1 construct: also called SARS-CoV-2 RBD
Test: ELISA
Details: both partners purified

binder	EC50 / nM
mRBD11 (antibody, V domains shown) VH: QVQLQQSGAELARPGASVKLSCKASGYTFISNGISWVKQRTGQGLEWIGEIYPRNGNTYYNEKFKGKATLTADKSSSTAYMELRSLTSEDSAVFFCARDYYYGNFDYWGQGTTLTVSS VL: NIVLTQSPASLAVSLGQRATISCRASESVDSYGNSFMHWYQQKPGQPPKLLIYLASNLESGVPARFSGSGSRTDFTLTIDPVEADDAATYYCQQNNEDPYTFGGGTKLEIK	82.3
mRBD23 (antibody, V domains shown) VH: QVQLQQPGAELVRPGSSVKLSCKASGYTFTSYWMHWVKQRPIQGLEWIGNIDPSDSETHYNQKFKDKATLTVDKSSSTAYMQLSSLTSEDSAVYYCTRPGSLRSRGWYFDVWGTGTTVTVSS VL: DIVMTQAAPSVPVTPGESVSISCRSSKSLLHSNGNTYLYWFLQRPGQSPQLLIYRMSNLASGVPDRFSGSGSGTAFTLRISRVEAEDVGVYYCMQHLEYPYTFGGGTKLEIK	0.304
mRBD1 (antibody, V domains shown) VH: QVQLQQPGAELVKPGASVKVSCKASGYTFTSYWMHWVKQRPGQGLEWIGRIHPSDSDTNYNQKFKGKATLTVDKSSNTAYMQLSSLTSEDSAVYYCAILDCYWYFDVWGTGTTVTVSS VL: QIVLTQSPAIMSASPGEKVTMTCSASSSVSYMYWYQQKPGSSPRLLIYDTSNLASGVPVRFSGSGSGTSYSLTISRMEAEDAATYYCQQWSSYPLTFGAGTKLELK	0.134
